target: ΔF508-CFTR (Homo sapiens, UniProt P13569, DEL508-508); construct: host or cells: CFBE41o-, doxycycline-inducible; test: CFTR cell surface levels using HRP-tagged ΔF508-CFTR expressing CFBE cells, intrinsic corrector capacity; assay type: cell-based; set-up: concentration or dose not given beside the values; conditions: HRP-tagged ΔF508-CFTR expressing CFBE41o- cells; compound alone (intrinsic corrector capacity); 20 hours at 33° C.
Sequence (P13569 with tags, fused parts or gaps DEL508-508): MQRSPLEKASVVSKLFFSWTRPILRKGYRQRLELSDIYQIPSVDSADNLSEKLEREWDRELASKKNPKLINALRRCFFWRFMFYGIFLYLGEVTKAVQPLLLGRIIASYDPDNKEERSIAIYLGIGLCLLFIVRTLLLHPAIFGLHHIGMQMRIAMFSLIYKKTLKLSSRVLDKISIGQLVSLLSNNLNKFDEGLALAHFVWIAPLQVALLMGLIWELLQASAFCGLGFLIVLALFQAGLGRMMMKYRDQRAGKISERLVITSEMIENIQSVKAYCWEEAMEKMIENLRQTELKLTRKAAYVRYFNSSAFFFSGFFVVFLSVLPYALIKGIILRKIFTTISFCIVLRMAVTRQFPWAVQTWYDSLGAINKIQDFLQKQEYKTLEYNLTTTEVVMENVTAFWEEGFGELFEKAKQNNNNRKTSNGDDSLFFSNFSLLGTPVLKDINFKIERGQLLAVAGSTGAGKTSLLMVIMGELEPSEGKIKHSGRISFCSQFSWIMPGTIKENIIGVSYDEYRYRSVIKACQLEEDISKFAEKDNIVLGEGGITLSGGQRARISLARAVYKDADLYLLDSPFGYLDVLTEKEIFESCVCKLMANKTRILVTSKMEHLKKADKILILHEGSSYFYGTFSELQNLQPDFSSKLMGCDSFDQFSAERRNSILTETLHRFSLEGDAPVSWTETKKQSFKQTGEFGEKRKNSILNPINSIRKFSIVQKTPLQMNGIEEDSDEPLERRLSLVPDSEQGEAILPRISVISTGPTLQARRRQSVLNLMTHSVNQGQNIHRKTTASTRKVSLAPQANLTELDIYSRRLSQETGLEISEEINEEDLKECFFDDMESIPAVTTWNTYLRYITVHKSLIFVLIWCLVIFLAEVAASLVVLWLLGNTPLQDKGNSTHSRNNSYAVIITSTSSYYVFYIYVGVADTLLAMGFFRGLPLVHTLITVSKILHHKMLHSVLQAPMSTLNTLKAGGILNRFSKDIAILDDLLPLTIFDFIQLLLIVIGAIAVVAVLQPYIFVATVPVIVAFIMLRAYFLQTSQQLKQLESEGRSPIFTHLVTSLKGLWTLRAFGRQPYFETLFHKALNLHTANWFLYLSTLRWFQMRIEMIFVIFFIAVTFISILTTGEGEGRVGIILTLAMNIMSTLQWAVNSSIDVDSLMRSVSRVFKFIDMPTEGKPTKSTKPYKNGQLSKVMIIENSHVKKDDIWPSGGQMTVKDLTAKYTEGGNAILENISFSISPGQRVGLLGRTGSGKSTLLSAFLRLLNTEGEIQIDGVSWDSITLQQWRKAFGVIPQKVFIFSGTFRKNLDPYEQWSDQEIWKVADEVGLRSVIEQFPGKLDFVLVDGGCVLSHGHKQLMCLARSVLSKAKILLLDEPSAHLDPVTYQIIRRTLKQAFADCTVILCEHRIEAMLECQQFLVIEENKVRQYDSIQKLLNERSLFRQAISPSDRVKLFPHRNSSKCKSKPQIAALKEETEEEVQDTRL
measuredEndpoint: % Activation (%)

- CC(C)c1nn(-c2ccc(F)cc2)c2nc(C(=O)NS(C)(=O)=O)cc(N3CCC(N(C)C)CC3)c12: 34.315
- CC1(COc2cc(C(=O)NS(C)(=O)=O)nc3c2c(C2CCC2)nn3-c2ccccc2)CC(F)(F)C1: 127.8
- CCOC(=O)N1CCN(C2CCN(c3cc(C(=O)NS(=O)(=O)N(C)C)nc4c3c(C3CCC3)nn4-c3ccc(F)cc3)CC2)CC1: 290.3
- CC(C)N1CCC(c2cc(C(=O)NS(C)(=O)=O)nc3c2c(C2CCC2)nn3-c2ccc(F)cc2)CC1: 77.39
- CN(C)S(=O)(=O)NC(=O)c1cc(N2CCC(N3CCOCC3)CC2)c2c(C3CCC3)nn(-c3ccccc3)c2n1: 268.4
- CC(C)c1nn(-c2cc(F)cc(F)c2)c2nc(C(=O)NS(C)(=O)=O)cc(-c3ccc(N4CCC(C#N)CC4)cc3)c12: 318.25
- COCC1CCN(c2cc(C(=O)NS(=O)(=O)CCN(C)C)nc3c2c(C2CCC2)nn3-c2ccccc2)CC1: 182.4
- O=C(NS(=O)(=O)CCCN1CCOCC1)c1cc(N2CCC[C@@H](CO)C2)c2c(C3CCC3)nn(-c3ccccc3)c2n1: 104.21
- O=C(NS(=O)(=O)C1CCOC1)c1cc(N2CCC(CCN3CCOCC3)CC2)c2c(C3CCC3)nn(-c3ccc(F)cc3)c2n1 (stereo not drawn): 239.8
- COCC1CCN(c2cc(C(=O)NS(C)(=O)=O)nc3c2c(C(C)C)nn3-c2ccc(F)cc2)CC1: 399.2
- CN(C(=O)c1cc(N2CCC(CN3CCCC3)CC2)c2c(C3CCC3)nn(-c3ccccc3)c2n1)S(C)(=O)=O: 134.35
- Cc1nn(-c2ccc(F)c(F)c2)c2nc(C(=O)NS(C)(=O)=O)cc(-c3ccc(N4CCOCC4)cc3)c12: 247.23
- CN(C)S(=O)(=O)NC(=O)c1cc(C2CCN(C3CCOCC3)CC2)c2c(C3CCC3)nn(-c3ccc(F)cc3)c2n1: 108.7
- COCC1CCN(c2cc(C(=O)NS(=O)(=O)CCl)nc3c2c(C2CCC2)nn3-c2ccccc2)CC1: 268.5
- CCS(=O)(=O)NC(=O)c1cc(-c2ccc(N3CCOCC3)cc2)c2c(C(C)C)nn(C3CCCOC3)c2n1 (stereo not drawn): 147.1
- CC(C)c1nn(-c2ccnc(N3CCOCC3)c2)c2nc(C(=O)NS(C)(=O)=O)cc(-c3ccc(N4CCC(C#N)CC4)nc3)c12: 216.8
- CC(C)c1nn(-c2ccc(F)cc2)c2nc(C(=O)NS(C)(=O)=O)cc(N3CCC(N4CCCCC4)CC3)c12: 293.6
- CC1(C)CN(C2CCN(c3cc(C(=O)NS(C)(=O)=O)nc4c3c(C3CCC3)nn4-c3ccc(F)cc3)CC2)CCO1: 366.8
- CN(C)S(=O)(=O)NC(=O)c1cc(N2CCC(N3CCCCC3)CC2)c2c(C3CCC3)nn(-c3ccc(F)cc3)c2n1: 210.57
- CN(C)S(=O)(=O)NC(=O)c1cc(N2CCC(N3CCC(C#N)CC3)CC2)c2c(C3CCC3)nn(-c3ccc(F)cc3)c2n1: 317.9
- COCCN(C)C1CCN(c2cc(C(=O)NS(=O)(=O)N(C)C)nc3c2c(C2CCC2)nn3-c2ccc(F)cc2)CC1: 189.1
- O=C(NS(=O)(=O)N1CCOCC1)c1cc(N2CCC(N3CCN(C4CC4)CC3)CC2)c2c(C3CCC3)nn(-c3ccccc3)c2n1: 235.5
- CS(=O)(=O)NC(=O)c1cc(OCC2CCCCC2)c2c(C3CCC3)nn(-c3ccccc3)c2n1: 137.73
- COCC1CCN(c2cc(C(=O)NS(=O)(=O)CCO)nc3c2c(C2CCC2)nn3-c2ccccc2)CC1: 264
- CC1(c2nn(-c3ccccc3)c3nc(C(=O)NS(C)(=O)=O)cc(-c4ccc(N5CCOCC5)cc4)c23)CCC1: 131.8
- CC(C)Oc1nn(C2CCCCC2)c2nc(C(=O)NS(C)(=O)=O)cc(-c3ccc(C(=O)N4CC5CN(C)CC5C4)cc3)c12 (stereo not drawn): 191.88
- CNS(=O)(=O)NC(=O)c1cc(N2CCC(COC)CC2)c2c(C3CCC3)nn(-c3ccc(F)cc3)c2n1: 334.9
